// data source = ChEMBL document CHEMBL1138130

Can you tell me MIC for the items I'm about to list?
test system: Streptococcus pneumoniae; test: Antibacterial activity against erm(B) ribosomal methylase gene containing Streptococcus pneumoniae OC4051; assay type: functional
Express the result in µg/mL but write the number alone.

Incoming: // returns reported MIC for input "CC[C@H]1OC(=O)[C@H](C)[C@@H](OC(=O)c2cccnc2)[C@H](C)[C@@H](O[C@@H]2O[C@H](C)C[C@H](N(C)C)[C@H]2O)[C@](C)(OC(=O)NC/C=C/c2ccc(-c3ncccn3)cc2)C[C@@H](C)C(=O)[C@H](C)[C@H]2NC(=O)O[C@@]21C"
Outgoing: 4

Incoming: Another compound to check: "CC[C@H]1OC(=O)[C@H](C)[C@@H](OC(=O)N(CC)CC)[C@H](C)[C@@H](O[C@@H]2O[C@H](C)C[C@H](N(C)C)[C@H]2O)[C@](C)(OC(=O)NC/C=C/c2cnc3ccccc3c2)C[C@@H](C)C(=O)[C@H](C)[C@H]2NC(=O)O[C@@]21C"
Outgoing: 0.12

----------
Exercise: for every item that follows, state its recorded MIC.
system: Streptococcus pneumoniae; test: Antibacterial activity against Streptococcus pneumoniae OC9132; type: functional
Kindly report the value followed by its unit.

Incoming: GET /values?readout=MIC&item= "CC[C@H]1OC(=O)[C@H](C)[C@@H](OC(=O)Cc2ccccn2)[C@H](C)[C@@H](O[C@@H]2O[C@H](C)C[C@H](N(C)C)[C@H]2O)[C@](C)(OC(=O)NC/C=C/c2ccc(-c3ncccn3)cc2)C[C@@H](C)C(=O)[C@H](C)[C@H]2NC(=O)O[C@@]21C"
Outgoing: 0.03 µg/mL

Incoming: Field entry: "CC[C@H]1OC(=O)[C@H](C)[C@@H](OC(=O)N(CC)CC)[C@H](C)[C@@H](O[C@@H]2O[C@H](C)C[C@H](N(C)C)[C@H]2O)[C@](C)(OC(=O)NC/C=C/c2ccc(-n3cccn3)cc2)C[C@@H](C)C(=O)[C@H](C)[C@H]2NC(=O)O[C@@]21C"
Outgoing: 0.12 µg/mL

Incoming: And then "CC[C@H]1OC(=O)[C@H](C)[C@@H](OC(=O)C(C)C)[C@H](C)[C@@H](O[C@@H]2O[C@H](C)C[C@H](N(C)C)[C@H]2O)[C@](C)(OC(=O)NC/C=C/c2cnc3ccccc3c2)C[C@@H](C)C(=O)[C@H](C)[C@H]2NC(=O)O[C@@]21C" , what is it?
Outgoing: 0.03 µg/mL

Incoming: Quick one: "CC[C@H]1OC(=O)[C@H](C)[C@@H](OC(=O)NC2CCCCC2)[C@H](C)[C@@H](O[C@@H]2O[C@H](C)C[C@H](N(C)C)[C@H]2O)[C@](C)(OC(=O)NC/C=C/c2ccc(-c3ncccn3)cc2)C[C@@H](C)C(=O)[C@H](C)[C@H]2NC(=O)O[C@@]21C"
Outgoing: 0.12 µg/mL

----------
system: Streptococcus pneumoniae; test: Antibacterial activity against Mef(A) efflux pump containing Streptococcus pneumoniae OC4438; type: functional
REPORTED PROPERTY: MIC (µg/mL)
Return type: number; implicit unit µg/mL.

Incoming: Item under review: "CC[C@H]1OC(=O)[C@H](C)[C@@H](OC(=O)C(C)C)[C@H](C)[C@@H](O[C@@H]2O[C@H](C)C[C@H](N(C)C)[C@H]2O)[C@](C)(OC(=O)NC/C=C/c2ccc(-c3ncccn3)cc2)C[C@@H](C)C(=O)[C@H](C)[C@H]2NC(=O)O[C@@]21C" . Reported MIC?
Outgoing: 0.12

Incoming: // next record "CC[C@H]1OC(=O)[C@H](C)[C@@H](OC(=O)Nc2ccc(OC)cc2)[C@H](C)[C@@H](O[C@@H]2O[C@H](C)C[C@H](N(C)C)[C@H]2O)[C@](C)(OC(=O)NC/C=C/c2ccc(-c3ncccn3)cc2)C[C@@H](C)C(=O)[C@H](C)[C@H]2NC(=O)O[C@@]21C"
Outgoing: 0.25

----------
Task for the reader: assign each of the following compounds its reported MIC.
test system: Streptococcus pneumoniae; assay: Antibacterial activity against Mef(A) efflux pump containing Streptococcus pneumoniae OC4438; assay type: functional
Please reply with the bare figure in µg/mL and do not write the unit itself.

Incoming: Item under review: "CC[C@H]1OC(=O)[C@H](C)[C@@H](O[C@H]2C[C@@](C)(OC)[C@@H](O)[C@H](C)O2)[C@H](C)[C@@H](O[C@@H]2O[C@H](C)C[C@H](N(C)C)[C@H]2O)[C@](C)(O)C[C@@H](C)C(=O)[C@H](C)[C@@H](O)[C@]1(C)O" . Reported MIC?
Outgoing: 4

Incoming: Moving on to "CC[C@H]1OC(=O)[C@H](C)[C@@H](OC(=O)N(CC)CC)[C@H](C)[C@@H](O[C@@H]2O[C@H](C)C[C@H](N(C)C)[C@H]2O)[C@](C)(OC(=O)NC/C=C/c2cnc3ccccc3c2)C[C@@H](C)C(=O)[C@H](C)[C@H]2NC(=O)O[C@@]21C"
Outgoing: 0.06

Incoming: And for "CC[C@H]1OC(=O)[C@H](C)[C@@H](OC(=O)NC2CCCCC2)[C@H](C)[C@@H](O[C@@H]2O[C@H](C)C[C@H](N(C)C)[C@H]2O)[C@](C)(OC(=O)NC/C=C/c2ccc(-c3ncccn3)cc2)C[C@@H](C)C(=O)[C@H](C)[C@H]2NC(=O)O[C@@]21C" ?
Outgoing: 0.25

Incoming: Next: "CC[C@H]1OC(=O)[C@H](C)C(=O)[C@H](C)[C@@H](O[C@@H]2O[C@H](C)C[C@H](N(C)C)[C@H]2O)[C@](C)(OC(=O)NC/C=C/c2ccc(-c3ncccn3)cc2)C[C@@H](C)C(=O)[C@H](C)[C@H]2NC(=O)O[C@@]21C"
Outgoing: 0.25

Incoming: Repeat for the following compound: "CC[C@H]1OC(=O)[C@H](C)[C@@H](OC(=O)N(C)c2ccncc2)[C@H](C)[C@@H](O[C@@H]2O[C@H](C)C[C@H](N(C)C)[C@H]2O)[C@](C)(OC(=O)NC/C=C/c2ccc(-c3ncccn3)cc2)C[C@@H](C)C(=O)[C@H](C)[C@H]2NC(=O)O[C@@]21C"
Outgoing: 0.25

Incoming: // next record "CC[C@H]1OC(=O)[C@H](C)[C@@H](OC(=O)Cc2cccnc2)[C@H](C)[C@@H](O[C@@H]2O[C@H](C)C[C@H](N(C)C)[C@H]2O)[C@](C)(OC(=O)NC/C=C/c2cnc(C3CC3)nc2)C[C@@H](C)C(=O)[C@H](C)[C@H]2NC(=O)O[C@@]21C"
Outgoing: 0.25

Incoming: Next entry: "CC[C@H]1OC(=O)[C@H](C)[C@@H](OC(=O)N(CC)Cc2cccnc2)[C@H](C)[C@@H](O[C@@H]2O[C@H](C)C[C@H](N(C)C)[C@H]2O)[C@](C)(OC(=O)NC/C=C/c2ccc(-c3ncccn3)cc2)C[C@@H](C)C(=O)[C@H](C)[C@H]2NC(=O)O[C@@]21C"
Outgoing: 0.12

Incoming: Please give the result for "CC[C@H]1OC(=O)[C@H](C)[C@@H](OC(=O)Cc2cccnc2)[C@H](C)[C@@H](O[C@@H]2O[C@H](C)C[C@H](N(C)C)[C@H]2O)[C@](C)(OC(=O)NC/C=C/c2cnc3ccccc3c2)C[C@@H](C)C(=O)[C@H](C)[C@H]2NC(=O)O[C@@]21C" too.
Outgoing: 0.06

----------
tested on: Streptococcus pneumoniae; assay: Antibacterial activity against Streptococcus pneumoniae OC9132; format: functional
REPORTED PROPERTY: MIC
Provide a numeric answer, followed by its unit.

Incoming: Name the reported MIC value associated with the molecule "CC[C@H]1OC(=O)[C@H](C)[C@@H](O[C@H]2C[C@@](C)(OC)[C@@H](O)[C@H](C)O2)[C@H](C)[C@@H](O[C@@H]2O[C@H](C)C[C@H](N(C)C)[C@H]2O)[C@](C)(O)C[C@@H](C)C(=O)[C@H](C)[C@@H](O)[C@]1(C)O"
Outgoing: 0.06 µg/mL

Incoming: Try the molecule "CC[C@H]1OC(=O)[C@H](C)[C@@H](OC(=O)Cc2cccnc2)[C@H](C)[C@@H](O[C@@H]2O[C@H](C)C[C@H](N(C)C)[C@H]2O)[C@](C)(OC(=O)NC/C=C/C=C/c2cccnc2)C[C@@H](C)C(=O)[C@H](C)[C@H]2NC(=O)O[C@@]21C"
Outgoing: 0.03 µg/mL

Incoming: What about this molecule? "CC[C@H]1OC(=O)[C@H](C)[C@@H](OC(=O)N(C)C)[C@H](C)[C@@H](O[C@@H]2O[C@H](C)C[C@H](N(C)C)[C@H]2O)[C@](C)(OC(=O)NC/C=C/c2ccc(-c3ncccn3)cc2)C[C@@H](C)C(=O)[C@H](C)[C@H]2NC(=O)O[C@@]21C"
Outgoing: 0.03 µg/mL

Incoming: // next record "CC[C@H]1OC(=O)[C@H](C)[C@@H](OC(=O)Cc2cccnc2)[C@H](C)[C@@H](O[C@@H]2O[C@H](C)C[C@H](N(C)C)[C@H]2O)[C@](C)(OC(=O)NC/C=C/c2ccc(-c3ncccn3)cc2)C[C@@H](C)C(=O)[C@H](C)[C@H]2NC(=O)O[C@@]21C"
Outgoing: 0.03 µg/mL

Incoming: Would you kindly repeat that for "CC[C@H]1OC(=O)[C@H](C)[C@@H](OC(C)=O)[C@H](C)[C@@H](O[C@@H]2O[C@H](C)C[C@H](N(C)C)[C@H]2O)[C@](C)(OC(=O)NC/C=C/c2ccc(-c3ncccn3)cc2)C[C@@H](C)C(=O)[C@H](C)[C@H]2NC(=O)O[C@@]21C" ?
Outgoing: 0.03 µg/mL

Incoming: Queued: "CC[C@H]1OC(=O)[C@H](C)[C@@H](OC(=O)C(C)C)[C@H](C)[C@@H](O[C@@H]2O[C@H](C)C[C@H](N(C)C)[C@H]2O)[C@](C)(OC(=O)NC/C=C/c2ccc(-c3cccnn3)cc2)C[C@@H](C)C(=O)[C@H](C)[C@H]2NC(=O)O[C@@]21C"
Outgoing: 0.06 µg/mL

Incoming: What would you report for "CC[C@H]1OC(=O)[C@H](C)[C@@H](OC(=O)N(CC)CC)[C@H](C)[C@@H](O[C@@H]2O[C@H](C)C[C@H](N(C)C)[C@H]2O)[C@](C)(OC(=O)NC/C=C/c2cnc3ccccc3c2)C[C@@H](C)C(=O)[C@H](C)[C@H]2NC(=O)O[C@@]21C" ?
Outgoing: 0.06 µg/mL

Incoming: Then what about the molecule "CC[C@H]1OC(=O)[C@H](C)[C@@H](OC(=O)N(CC)Cc2cccnc2)[C@H](C)[C@@H](O[C@@H]2O[C@H](C)C[C@H](N(C)C)[C@H]2O)[C@](C)(OC(=O)NC/C=C/c2ccc(-c3ncccn3)cc2)C[C@@H](C)C(=O)[C@H](C)[C@H]2NC(=O)O[C@@]21C" ?
Outgoing: 0.06 µg/mL
